Item-by-item account of IC50
- System: Ba/F3-TEL-FGFR3 cells
- ASSAY INFO: Ba/F3-TEL-FGFR3 cell proliferation assay (Alamar Blue)
- Type: cell-based
- MEASUREMENT PARAMETERS: 72 hours, Alamar Blue; read-out: BaF3-TEL-FGFR3 prolif
Counter-ions that a name gives are not always drawn.
Entry rule: numbers only, all in nM.

Reference set, count: 3
CC(C)N1CC(n2cc(-c3ccn4c(-c5cccc(NC(=O)NCC(F)(F)F)c5)cnc4c3)cn2)C1 | 12
O=C(NCC(F)(F)F)Nc1cccc(-c2cnc3cc(-c4ccc(O)cn4)ccn23)c1 | 260
O=C(NCC(F)(F)F)Nc1cccc(-c2cnc3cc(-c4ccnc(-n5ccnc5)n4)ccn23)c1 | 8800

Q. Would you mind telling me what IC50 value was observed for CC(C)N1CCC(n2cc(-c3ccn4c(-c5cccc(NC(=O)NCC(F)(F)F)c5)cnc4c3)cn2)CC1 [Example 50, hydrochloride] ?
A. 29

###

Below is a list of entries, each paired with its recorded inhibition at 0.0003 µM value.
- ASSAYED TARGET: FGFR3 (Homo sapiens (Human), UniProt P22607)
- Sequence (P22607 23-806): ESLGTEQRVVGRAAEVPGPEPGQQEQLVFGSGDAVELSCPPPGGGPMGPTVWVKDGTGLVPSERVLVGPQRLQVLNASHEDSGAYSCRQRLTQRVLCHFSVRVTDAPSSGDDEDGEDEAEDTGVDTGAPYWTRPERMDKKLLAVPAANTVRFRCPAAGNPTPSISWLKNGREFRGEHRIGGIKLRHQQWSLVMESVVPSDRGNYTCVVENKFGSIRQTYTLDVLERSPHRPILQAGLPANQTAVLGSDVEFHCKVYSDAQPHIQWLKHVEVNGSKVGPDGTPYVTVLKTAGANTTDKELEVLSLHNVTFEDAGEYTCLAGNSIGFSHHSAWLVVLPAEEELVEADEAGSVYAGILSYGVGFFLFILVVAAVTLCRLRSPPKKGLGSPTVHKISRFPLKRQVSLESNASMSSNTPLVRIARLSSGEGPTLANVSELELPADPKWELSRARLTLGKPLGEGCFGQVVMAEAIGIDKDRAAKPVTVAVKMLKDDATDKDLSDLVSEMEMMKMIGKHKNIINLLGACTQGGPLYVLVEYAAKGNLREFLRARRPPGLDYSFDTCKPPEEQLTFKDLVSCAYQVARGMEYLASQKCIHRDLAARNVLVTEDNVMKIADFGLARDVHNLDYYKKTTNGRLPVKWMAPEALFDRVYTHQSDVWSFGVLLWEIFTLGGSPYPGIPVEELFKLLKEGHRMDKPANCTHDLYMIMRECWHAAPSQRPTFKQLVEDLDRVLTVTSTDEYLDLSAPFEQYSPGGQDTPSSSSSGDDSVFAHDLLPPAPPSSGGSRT
- ASSAY INFO: FGFR3 in vitro kinase inhibitory activity assay (TRF)
- MEASUREMENT PARAMETERS: 3 h, read-out: FGFR3 % I
Where a name gives a salt, the structure may show the parent alone.

Some compounds with recorded inhibition at 0.0003 µM:
CC(=O)N1CCC(n2cc(-c3ccn4c(-c5cccc(NC(=O)NCC(F)(F)F)c5)cnc4c3)cn2)CC1 [Example 63, formate] | 50.5%
COCCNc1nnc(-c2ccn3c(-c4cccc(NC(=O)NCC(F)(F)F)c4)cnc3c2)s1 | 54%
CS(=O)(=O)N1CCC(n2cc(-c3ccn4c(-c5cccc(NC(=O)NCC(F)(F)F)c5)cnc4c3)cn2)CC1 | 51.5%

Q. Field request: inhibition at 0.0003 µM | item: CC(C)N1CCC(n2cc(-c3ccn4c(-c5cccc(NC(=O)NCC(F)(F)F)c5)cnc4c3)cn2)CC1 [Example 50, hydrochloride]
A. 39%

Q. # inhibition at 0.0003 µM lookup, item `CCNc1nnc(-c2ccn3c(-c4cccc(NC(=O)NCC(F)(F)F)c4)cnc3c2)s1`
A. 57%

Q. Which value of inhibition at 0.0003 µM has been reported for `CC(C)(O)c1ccc(-c2ccn3c(-c4cccc(NC(=O)NCC(F)(F)F)c4)cnc3c2)cc1` in the records?
A. 36%

Q. Could you tell me which inhibition at 0.0003 µM is on file for O=C(NCC(F)(F)F)Nc1cccc(-c2cnc3cc(-c4ccc(NC5CCOCC5)nn4)ccn23)c1 [Example 66, bis-hydrochloride] ?
A. 43%

Q. Please look up its inhibition at 0.0003 µM: `CC(C)(C)OC(=O)N1CCC(n2cc(-c3ccn4c(-c5cncc(NC(=O)NCC(F)(F)F)c5)cnc4c3)cn2)CC1`
A. 38%

###

Listing of recorded melting point by entry.
Report the figure in °C without appending any unit label.

Here are 6 compounds together with their reported answers.
Nc1nc(-c2ccn3c(-c4cccc(NC(=O)NCC(F)(F)F)c4)cnc3c2)ncc1CN1CCC1 [Compound 259] | 195
NCc1cc(NC(=O)NCC(F)(F)F)cc(-c2cnc3cc(-c4ccnc(C(F)(F)F)n4)ccn23)c1 [Compound 274] | 190
CC(C)COC(=O)Nc1nc(-c2ccn3c(-c4cccc(NC(=O)NCC(F)(F)F)c4)cnc3c2)ncc1F [Compound 273] | 215.2
N#Cc1ccnc(-c2ccn3c(-c4cccc(NC(=O)NCC(F)(F)F)c4)cnc3c2)n1 [Compound 253] | 210
O=C(NCC(F)(F)F)Nc1cccc(-c2cnc3cc(C#Cc4nccn4CCO)ccn23)c1 [Compound 262] | 228
COc1cc(NC(=O)NCC(F)(F)F)cc(-c2cnc3cc(-c4ncc(F)c(N)n4)ccn23)c1 [Compound 252] | 154

Next:
Q. Dear colleague, I am looking for the recorded melting point of the following compound: NCC1CCN(c2ccc(-c3ccn4c(-c5cccc(NC(=O)NCC(F)(F)F)c5)cnc4c3)cn2)CC1 [Compound 271]
A. 80

###

Below are IC50 values recorded for VEGFR2 (Homo sapiens (Human), UniProt P35968).

Use these answered entries as a reference point.
Nc1ncc(C(F)(F)F)c(-c2ccn3c(-c4cccc(NC(=O)NCC(F)(F)F)c4)cnc3c2)n1 | > 10000 nM
O=C(NCC(F)(F)F)Nc1cccc(-c2cnc3cc(-c4ccnc(-n5ccnc5)n4)ccn23)c1 | > 10000 nM
CCNc1nc(-c2ccn3c(-c4cccc(NC(=O)NCC(F)(F)F)c4)cnc3c2)ncc1F | > 1000 nM
CC(=O)N1CC(n2cc(-c3ccn4c(-c5cccc(NC(=O)NCC(F)(F)F)c5)cnc4c3)cn2)C1 | > 300 nM

Q. Provide value of IC50 for this record tested with VEGFR2 (Homo sapiens (Human), UniProt P35968): `COc1cc(NC(=O)NCC(F)(F)F)cc(-c2cnc3cc(-c4ncc(F)c(N)n4)ccn23)c1`
Sequence (P35968 20-1356): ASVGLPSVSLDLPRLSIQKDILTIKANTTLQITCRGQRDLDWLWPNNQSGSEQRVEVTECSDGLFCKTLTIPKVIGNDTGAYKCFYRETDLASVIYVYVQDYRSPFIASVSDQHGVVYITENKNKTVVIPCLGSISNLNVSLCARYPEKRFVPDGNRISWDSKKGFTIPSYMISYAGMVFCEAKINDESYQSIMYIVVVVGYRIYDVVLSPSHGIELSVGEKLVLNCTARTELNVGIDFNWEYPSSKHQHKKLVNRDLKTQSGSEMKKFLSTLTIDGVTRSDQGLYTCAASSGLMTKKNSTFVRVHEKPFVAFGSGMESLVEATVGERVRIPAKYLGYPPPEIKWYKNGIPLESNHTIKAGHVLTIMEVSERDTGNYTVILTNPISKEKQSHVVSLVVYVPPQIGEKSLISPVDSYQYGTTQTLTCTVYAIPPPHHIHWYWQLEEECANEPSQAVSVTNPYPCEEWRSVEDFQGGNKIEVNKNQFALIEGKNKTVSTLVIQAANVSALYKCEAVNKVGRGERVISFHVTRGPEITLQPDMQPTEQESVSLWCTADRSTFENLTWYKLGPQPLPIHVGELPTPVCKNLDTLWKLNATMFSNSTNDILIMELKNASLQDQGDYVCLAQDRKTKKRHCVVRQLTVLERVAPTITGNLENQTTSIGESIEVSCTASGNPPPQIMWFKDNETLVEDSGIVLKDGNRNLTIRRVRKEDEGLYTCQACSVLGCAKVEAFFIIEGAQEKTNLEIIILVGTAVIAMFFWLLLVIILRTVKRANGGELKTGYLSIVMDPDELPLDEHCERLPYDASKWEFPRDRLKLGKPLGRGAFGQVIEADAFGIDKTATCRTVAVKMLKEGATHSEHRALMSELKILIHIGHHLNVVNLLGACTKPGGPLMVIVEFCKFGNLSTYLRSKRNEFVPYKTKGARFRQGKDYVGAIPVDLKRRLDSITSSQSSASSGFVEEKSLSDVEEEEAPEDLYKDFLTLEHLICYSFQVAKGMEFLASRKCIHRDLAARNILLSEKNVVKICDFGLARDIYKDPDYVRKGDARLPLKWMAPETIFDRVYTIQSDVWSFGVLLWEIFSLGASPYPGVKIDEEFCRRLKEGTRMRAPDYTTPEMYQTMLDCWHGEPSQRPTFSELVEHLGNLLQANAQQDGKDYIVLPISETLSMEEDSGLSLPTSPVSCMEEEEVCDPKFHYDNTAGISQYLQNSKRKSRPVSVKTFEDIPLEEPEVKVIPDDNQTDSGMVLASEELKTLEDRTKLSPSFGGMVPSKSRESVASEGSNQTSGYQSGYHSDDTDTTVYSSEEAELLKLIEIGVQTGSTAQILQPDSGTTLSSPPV
A. > 1000 nM

Q. Please tell me: IC50 of `O=C(NCC(F)(F)F)Nc1cccc(-c2cnc3cc(-c4ncc(C(F)(F)F)c(NC5CCC5)n4)ccn23)c1` , system VEGFR2 (Homo sapiens (Human), UniProt P35968)?
A. > 3000 nM

Q. Form entry - test system: VEGFR2 (Homo sapiens (Human), UniProt P35968); read-out: IC50; compound: `O=C(NCC(F)(F)F)Nc1cccc(-c2cnc3cc(-c4nc(NC5CCC5)ncc4C(F)(F)F)ccn23)c1`
A. > 30000 nM

###

- Test system: parental wild-type Ba/F3 cells
- ASSAY INFO: Ba/F3 (WT) cell proliferation assay (Alamar Blue)
- Format: cell-based
- MEASUREMENT PARAMETERS: Mus musculus, BaF3; 72 hours, Alamar Blue; read-out: BaF3 WT prolif
Listing: pIC50 of selected compounds
// returns pIC50 (minus log10 of molar concentration), number only

COc1cc(NC(=O)NCC(F)(F)F)cc(-c2cnc3cc(-c4ccnc(C(F)(F)F)n4)ccn23)c1 | 5.52

Q. Given `CC(C)n1ccnc1C#Cc1ccn2c(-c3cccc(NC(=O)NCC(F)(F)F)c3)cnc2c1` , state its recorded pIC50.
A. 5.85

Q. Which pIC50 value belongs to `CNc1ncc(-c2ccn3c(-c4cccc(NC(=O)NCC(F)(F)F)c4)cnc3c2)cc1C` ?
A. 6.82

Q. Request the reported pIC50 associated with `CN(C)c1cc(-c2ccn3c(-c4cccc(NC(=O)NCC(F)(F)F)c4)cnc3c2)nc(C(F)(F)F)n1`
A. 5.59

Q. Tell me the measured pIC50 of `O=C(NCC(F)(F)F)Nc1cccc(-c2cnc3cc(-c4nccnn4)ccn23)c1` , please.
A. 7.38

Q. Find the recorded pIC50 belonging to `O=C(NCC(F)(F)F)Nc1cccc(-c2cnc3cc(-c4cccnc4)ccn23)c1` and report it.
A. 6.82

Q. May I ask what pIC50 has been recorded for `CN(C)S(=O)(=O)NCC1CCN(c2ccc(-c3ccn4c(-c5cccc(NC(=O)NCC(F)(F)F)c5)cnc4c3)cn2)CC1` ?
A. 6.70

###

- Test system: parental wild-type Ba/F3 cells
- ASSAY INFO: Ba/F3 (WT) cell proliferation assay (Alamar Blue)
- Assay type: cell-based
- MEASUREMENT PARAMETERS: Mus musculus, BaF3, read-out: BaF3 WT prolif, % inhibition
The reader will find reported inhibition at 3 µM values listed item by item below.
Report only the number, with the unit % understood.

Study these solved cases before continuing.
O=C(NCC(F)(F)F)Nc1cccc(-c2cnc3cc(-c4nccc(N5CCN(CCO)CC5)n4)ccn23)c1 [Compound 270] | 16
Cc1nc(-c2ccn3c(-c4cccc(NC(=O)NCC(F)(F)F)c4)cnc3c2)cc(N2CCN(CCO)CC2)n1 [Example 194] | 26
O=C(NCC(F)(F)F)Nc1cccc(-c2cnc3cc(-c4ncc(C(F)(F)F)cn4)ccn23)c1 [Example 244] | 17
Cc1nc(-c2ccn3c(-c4cccc(NC(=O)NCC(F)(F)F)c4)cnc3c2)cc(N(C)C)n1 [Example 198] | 39
O=C(NCC(F)(F)F)Nc1cccc(-c2cnc3cc(-c4nccc(N5CCNCC5)n4)ccn23)c1 [Compound 269] | 0
O=C(NCC(F)(F)F)Nc1cccc(-c2cnc3cc(-c4nnc(NC5CC5)s4)ccn23)c1 [Compound 250] | 25
CCNC(=O)Nc1cccc(-c2cnc3cc(-c4ccnc(C(F)(F)F)n4)ccn23)c1 [Example 239] | 26

Q. API: value(readout=inhibition at 3 µM, system=parental wild-type Ba/F3 cells) for record COc1cnc(-c2ccn3c(-c4cccc(NC(=O)NCC(F)(F)F)c4)cnc3c2)nc1N [Example 173]
A. 29.5

###

- System: LP-1 cell line (FGF-1/Heparin induced pERK)
- ASSAY INFO: Cell-based pERK ELISA, LP-1 cells
- MEASUREMENT PARAMETERS: Homo sapiens, LP-1, read-out: LP-1 pERK ELISA (μM)
Structures can show the parent of a compound that is named as a salt.
Collected IC50 values appear next to each entry.
// return the numeric value with its unit appended

Q. I am curious: what IC50 value has been reported for `NC(=O)Nc1cccc(-c2cnc3cc(-c4ncccn4)ccn23)c1` ?
A. 1.5 µM

Q. Tell me the measured IC50 of CN(C)c1ccc(-c2ccn3c(-c4cccc(NC(=O)NCC(F)(F)F)c4)cnc3c2)nn1 [Example 113, formate] , please.
A. 0.016 µM

Q. I would be grateful if you could share the reported IC50 for `Cc1cnc(-c2ccn3c(-c4cccc(NC(=O)NCC(F)(F)F)c4)cnc3c2)nc1N` .
A. 0.077 µM

Q. Which value of IC50 has been reported for CN(C)C1CCN(c2ccc(-c3ccn4c(-c5cccc(NC(=O)NCC(F)(F)F)c5)cnc4c3)nn2)CC1 [Example 36, hydrochloride] in the records?
A. 0.065 µM

Q. Tell me the measured IC50 of Cc1ccnc(-c2ccn3c(-c4cccc(NC(=O)NCC(F)(F)F)c4)cnc3c2)n1 [Example 59, hydrochloride] , please.
A. 0.1 µM

Q. Which IC50 is listed for `CN1CCN(c2ccc(-c3ccn4c(-c5cccc(NC(=O)NCC(F)(F)F)c5)cnc4c3)nn2)CC1` ?
A. 0.041 µM

Q. Which IC50 value belongs to `NC(=O)c1ccnc(-c2ccn3c(-c4cccc(NC(=O)NCC(F)(F)F)c4)cnc3c2)n1` ?
A. 0.14 µM

Q. Looking for the measured IC50 of `O=C(NCC(F)(F)F)Nc1cccc(-c2cnc3cc(C#CCO)ccn23)c1` , can you help?
A. 0.27 µM
